# targetUnderTest: Single-strand selective monofunctional uracil DNA glycosylase (Homo sapiens) (UniProt Q53HV7);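 note: enzymatic SMUG1 assay coupled with APE1, reading fluorescence at 594 nm released when a quenched double-stranded DNA oligonucleotide substrate is cleaved and separated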
# Sequence (Q53HV7 whole entry): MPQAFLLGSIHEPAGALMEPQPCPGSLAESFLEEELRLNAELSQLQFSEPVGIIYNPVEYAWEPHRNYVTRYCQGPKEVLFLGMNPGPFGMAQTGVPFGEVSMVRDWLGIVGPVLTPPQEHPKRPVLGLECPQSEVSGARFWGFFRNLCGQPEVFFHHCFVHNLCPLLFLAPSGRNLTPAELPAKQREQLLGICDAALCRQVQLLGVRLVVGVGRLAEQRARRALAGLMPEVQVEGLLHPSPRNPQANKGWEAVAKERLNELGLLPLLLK
# statedConditions: Compound Concentration 10.0 uM, Hit No
# Description: Inhibition of SMUG1 by quantifying inhibition of SMUG1-mediated cleavage and dissociation of quenched duplex DNA oligonucleotides, measured as fluorescence at 594 nm. To generate a functional strand incision and increase turn-over this assay is coupled to APE1.
propertyLabel: inhibition (%)

{"compoundString": "CCOc1ccc(Cc2nc3cc(C(=O)N(CC)CC)ccc3n2CC2CCCCC2)cc1", "propertyLabel": "inhibition", "experimentalValue": 2.19}
{"compoundString": "CC(C)Oc1ccc(-c2nn([C@@H](C)c3oc4ccc(F)cc4c(=O)c3-c3cccc(F)c3)c3ncnc(N)c23)cc1F", "propertyLabel": "inhibition", "experimentalValue": 23.6}
{"compoundString": "COc1ccc2cc(S(=O)(=O)N[C@H](CC(=O)N[C@H](Cc3ccc(CN4[C@H](C)CCC[C@@H]4C)cc3)C(=O)N(C)C(C)C)c3ccc4c(c3)OCO4)ccc2c1", "propertyLabel": "inhibition", "experimentalValue": -5.31}
{"compoundString": "O=[N+]([O-])c1ccc(CN2CCOCCOCCN(Cc3ccc([N+](=O)[O-])cc3)CCOCC2)cc1", "propertyLabel": "inhibition", "experimentalValue": -2.67}
{"compoundString": "COc1ccnc(N2CCC3(CCCN(Cc4c[nH]c5ccccc45)C3=O)CC2)n1", "propertyLabel": "inhibition", "experimentalValue": 15.5}
{"compoundString": "CNC(=O)COc1cc2cc(Nc3nc(N4CCC(C(=O)N(C)C)CC4)ncc3Cl)cc(OC)c2n(C)c1=O", "propertyLabel": "inhibition", "experimentalValue": 3.52}
{"compoundString": "CC(=O)[C@H]1CC[C@H]2[C@@H]3CC[C@H]4C[C@H](O)CC[C@]4(C)[C@H]3CC[C@]12C", "propertyLabel": "inhibition", "experimentalValue": 13.9}
{"compoundString": "Cc1csc(NC(=O)c2cc(F)cc(Oc3cncnc3)c2)n1", "propertyLabel": "inhibition", "experimentalValue": 3.26}

The reported numbers originate from ChEMBL document CHEMBL5665443.
